Taken from ChEMBL document CHEMBL5058577.

Some compounds, each annotated with its measured Population Mitotic Cells (%).
- System: HEK-293T
- PROCEDURE TEXT: Multiplex assay against HEK293T
- Type: toxicity, cell-based
- APPLIED CONDITIONS: human, 12 h, 10 µM, compound concentration 10 uM, replicate 2
Enter your answer as a number in %; do not include the unit.

The compound identified as CCCCCCNC(=O)Nc1ccc(S(=O)(=O)Nc2ccc(CCNC[C@H](O)COc3ccc(O)cc3)cc2)cc1 [L-755507] registered its Population Mitotic Cells (%) at 28

Population Mitotic Cells (%) in this record for CSc1nc(NC2CCCC2)c([N+](=O)[O-])c(NC2CCCC2)n1 [GS-39783] : 60

Form: compound = CCC(=O)OCC(=O)[C@@]1(OC(=O)CC)[C@@H](C)C[C@H]2[C@@H]3CCC4=CC(=O)C=C[C@]4(C)[C@@]3(Cl)[C@@H](O)C[C@@]21C [BECLOMETHASONE DIPROPIONATE] ; Population Mitotic Cells (%) = 31

In plain terms, `S=C(NCCCc1c[nH]cn1)NCCCN(Cc1ccc(Cl)c(Cl)c1)c1ccc(Br)cn1` has a documented Population Mitotic Cells (%) of 22

Population Mitotic Cells (%) reading for Cc1cc(-c2ccc3c(c2)CC[C@H]3N2CC3(CCN(C(=O)Cc4cn5cc(C)sc5n4)CC3)C2)ncn1 [PF-5190457] : 45

Documented Population Mitotic Cells (%) of `COc1cc2nc(N3CCN(C(=O)COc4c(OC)cccc4C(C)C)CC3)nc(N)c2cc1OC.Cl.Cl` : 42

***
Lab note: measured Population Mitotic Cells (%) of `CN(C)C(=O)Cn1cc(-c2ccc(-c3nnc4ccccn34)cc2)cn1` was 48

The reported Population Mitotic Cells (%) of the compound `C[C@H](NC(=O)CNC(=O)c1cccc(Cl)c1)c1ccccc1` was 41

---

- System: HEK-293T
- PROCEDURE TEXT: Multiplex assay against HEK293T
- Format: toxicity, cell-based
- APPLIED CONDITIONS: human, 48 h, 1 µM, compound concentration 1 uM, replicate 1
MEASURED ATTRIBUTE: Population Normal (%)

Kindly note the recorded Population Normal (%) for CN(C)C/C=C/C(=O)Nc1ccc(C(=O)N2CCCC(Nc3ncc(Cl)c(-c4c[nH]c5ccccc45)n3)C2)cc1 (centres undefined) , which is 69%

According to the records, this compound `O=c1nc2[nH]c3ccccc3nc-2c(=O)[nH]1` displays Population Normal (%) of 96%

For record `CCc1nn2c(C)cc(C)nc2c1Cc1ccc(-c2nnc(C3CCNCC3)o2)cc1` the listed Population Normal (%) is 97%

---

- Tested on: U2OS
- PROCEDURE TEXT: Multiplex assay against U2OS
- Format: toxicity, cell-based
- APPLIED CONDITIONS: human, 24 h, 10 µM, compound concentration 10 uM, replicate 2
Criterion: Population Membrane Permeable-Phenotype (%) strictly less than 8%. Met: 1. Not met: 0.

Examples with answers:
[ask] Check if Population Membrane Permeable-Phenotype (%) falls below 8% for `COc1cc(OC2CCN(C(C)=O)CC2)ccc1C(=O)N1CCC(N2C(=O)OCc3ccccc32)CC1` .
[reply] 0

[ask] Is it true that Population Membrane Permeable-Phenotype (%) reported for `COc1ccc2[nH]c(I)c(CCNC(C)=O)c2c1` is less than 8%?
[reply] 1

[ask] Lab log: compare recorded Population Membrane Permeable-Phenotype (%) with 8%; is it strictly lower for Cc1ccc(OCC(O)C(C)NC(C)C)c2c1CCC2.Cl (configuration not stated) ?
[reply] 0

[ask] Population Membrane Permeable-Phenotype (%) strictly < 8% for this molecule? `Cc1sc2c(c1C)C(c1ccc(Cl)cc1)=N[C@H](CC(=O)OC(C)(C)C)c1nnc(C)n1-2`
[reply] 1

[ask] Does the reported Population Membrane Permeable-Phenotype (%) of `Nc1nc(CC(=O)Nc2ccc(CCNC[C@H](O)c3ccccc3)cc2)cs1` stay below 8%?
[reply] 0

[ask] Consider `Cc1cc(O)c(-c2ccc([C@@H](C)CN(C)C)cc2)c2c1[nH]c(=O)c1sccc12` . Does its Population Membrane Permeable-Phenotype (%) lie strictly below 8%?
[reply] 0

[ask] In the record for `Cc1nn(C)c2nc(NNC(=O)Nc3cc(Cl)nc(Cl)c3)cc(C(C)C)c12` , is Population Membrane Permeable-Phenotype (%) less than 8%?
[reply] 0

[ask] Does the reported Population Membrane Permeable-Phenotype (%) of the following molecule sit strictly below 8%? `CCc1nn2c(C)cc(C)nc2c1Cc1ccc(-c2nnc(C3CCNCC3)o2)cc1`
[reply] 0

[ask] For `COc1c(Nc2ccc(S(C)(=O)=O)nc2C)ncnc1OC1CCN(C(=O)OC(C)C)CC1` , is the recorded Population Membrane Permeable-Phenotype (%) below the cut-off of 8%?
[reply] 1

Proceed to the following item.
[ask] Please indicate whether the reported Population Membrane Permeable-Phenotype (%) of `OCCCNc1cc(-c2ccnc(Nc3cccc(Cl)c3)n2)ccn1` is strictly below 8%.
[reply] 0
